Target: GST-Dm-Relish (Drosophila melanogaster, UniProt Q94527 99-473)
Sequence: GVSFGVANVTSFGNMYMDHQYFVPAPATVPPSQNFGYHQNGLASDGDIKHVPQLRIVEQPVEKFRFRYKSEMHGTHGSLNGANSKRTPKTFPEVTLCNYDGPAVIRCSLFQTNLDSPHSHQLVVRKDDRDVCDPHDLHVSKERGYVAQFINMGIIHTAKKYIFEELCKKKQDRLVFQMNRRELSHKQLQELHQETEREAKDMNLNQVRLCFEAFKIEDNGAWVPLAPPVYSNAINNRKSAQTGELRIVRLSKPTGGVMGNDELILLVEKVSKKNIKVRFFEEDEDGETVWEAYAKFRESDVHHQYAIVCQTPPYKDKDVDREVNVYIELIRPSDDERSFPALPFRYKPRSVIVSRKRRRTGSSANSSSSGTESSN
Test: protein-binding microarray (PBM); PBM: ~300 nM protein, 6 mM HEPES pH 7.8, 80 mM KCl, 0.5 mM EDTA, 0.5 mM EGTA, 6% glycerol, 35 ng/ul poly-dIdC, 1% milk, 1 h, room temperature; Ap Aiptasia and Nv Nematostella (sea anemones) / Co Capsaspora / Aq Amphimedon (sponge) / Dm Drosophila / Hu human; RHD is the Rel homology domain; high values mean tight binding
Conditions: dsDNA, one strand shown
Classify: yes (1) when binding signal is strictly less than 3 z-score; no (0) when binding signal is not.

Just wondering, is binding signal of CCGATTAACATCAGGGGAAACCCTGATGTTAATCGGGTCTTGATTCGCTTGACGCTGCTG below 3 z-score?
no (0)

Just wondering, is binding signal of CCGATTAACATCACAAAATCCCCTGATGTTAATCGGGTCTTGATTCGCTTGACGCTGCTG below 3 z-score?
no (0)

Just wondering, is binding signal of CCGATTAACATCACCCTTGCAGGTGATGTTAATCGGGTCTTGATTCGCTTGACGCTGCTG below 3 z-score?
yes (1)

Just wondering, is binding signal of CCGATTAACATCACGGGGTTGCCTGATGTTAATCGGGTCTTGATTCGCTTGACGCTGCTG below 3 z-score?
yes (1)

Just wondering, is binding signal of CCGATTAACATCAGAAATTTACCTGATGTTAATCGGGTCTTGATTCGCTTGACGCTGCTG below 3 z-score?
yes (1)

Continuing:
Just wondering, is binding signal of CCGATTAACATCACGTGTTTTCCTGATGTTAATCGGGTCTTGATTCGCTTGACGCTGCTG below 3 z-score?
yes (1)

Just wondering, is binding signal of CCGATTAACATCAGGGATAACCCTGATGTTAATCGGGTCTTGATTCGCTTGACGCTGCTG below 3 z-score?
no (0)

Just wondering, is binding signal of CCGATTAACATCAGGGAGTTACCTGATGTTAATCGGGTCTTGATTCGCTTGACGCTGCTG below 3 z-score?
no (0)
